Target: human TAS1R2-A574T/TAS1R3-WT (Homo sapiens, UniProt Q7RTX0+Q8TE23, A574T)
Construct: expressed in transfected cells; host or cells: HEK293T-Gα16gust44
Sequence (Q8TE23 20-839 A574T): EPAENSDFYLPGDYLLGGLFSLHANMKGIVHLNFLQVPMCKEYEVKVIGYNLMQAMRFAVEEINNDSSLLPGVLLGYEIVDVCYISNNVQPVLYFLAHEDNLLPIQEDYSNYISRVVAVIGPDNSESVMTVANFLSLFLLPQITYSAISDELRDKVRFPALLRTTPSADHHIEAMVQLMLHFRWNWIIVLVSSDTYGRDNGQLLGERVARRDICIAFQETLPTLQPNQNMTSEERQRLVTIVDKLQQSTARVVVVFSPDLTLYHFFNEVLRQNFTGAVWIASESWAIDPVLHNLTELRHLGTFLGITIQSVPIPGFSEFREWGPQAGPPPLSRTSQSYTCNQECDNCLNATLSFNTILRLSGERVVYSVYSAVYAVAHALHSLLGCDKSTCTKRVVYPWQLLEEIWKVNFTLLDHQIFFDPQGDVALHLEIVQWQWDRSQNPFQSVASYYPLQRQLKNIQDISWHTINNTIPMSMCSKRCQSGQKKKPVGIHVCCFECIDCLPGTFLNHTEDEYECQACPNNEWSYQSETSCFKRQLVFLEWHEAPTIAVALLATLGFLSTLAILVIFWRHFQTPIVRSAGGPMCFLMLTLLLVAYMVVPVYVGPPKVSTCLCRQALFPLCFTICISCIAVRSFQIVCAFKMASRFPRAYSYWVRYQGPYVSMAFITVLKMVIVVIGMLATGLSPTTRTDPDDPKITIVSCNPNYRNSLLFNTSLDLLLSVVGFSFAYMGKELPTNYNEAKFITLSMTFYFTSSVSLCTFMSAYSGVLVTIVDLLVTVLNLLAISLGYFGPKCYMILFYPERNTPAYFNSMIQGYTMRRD
Sequence (Q7RTX0 21-852): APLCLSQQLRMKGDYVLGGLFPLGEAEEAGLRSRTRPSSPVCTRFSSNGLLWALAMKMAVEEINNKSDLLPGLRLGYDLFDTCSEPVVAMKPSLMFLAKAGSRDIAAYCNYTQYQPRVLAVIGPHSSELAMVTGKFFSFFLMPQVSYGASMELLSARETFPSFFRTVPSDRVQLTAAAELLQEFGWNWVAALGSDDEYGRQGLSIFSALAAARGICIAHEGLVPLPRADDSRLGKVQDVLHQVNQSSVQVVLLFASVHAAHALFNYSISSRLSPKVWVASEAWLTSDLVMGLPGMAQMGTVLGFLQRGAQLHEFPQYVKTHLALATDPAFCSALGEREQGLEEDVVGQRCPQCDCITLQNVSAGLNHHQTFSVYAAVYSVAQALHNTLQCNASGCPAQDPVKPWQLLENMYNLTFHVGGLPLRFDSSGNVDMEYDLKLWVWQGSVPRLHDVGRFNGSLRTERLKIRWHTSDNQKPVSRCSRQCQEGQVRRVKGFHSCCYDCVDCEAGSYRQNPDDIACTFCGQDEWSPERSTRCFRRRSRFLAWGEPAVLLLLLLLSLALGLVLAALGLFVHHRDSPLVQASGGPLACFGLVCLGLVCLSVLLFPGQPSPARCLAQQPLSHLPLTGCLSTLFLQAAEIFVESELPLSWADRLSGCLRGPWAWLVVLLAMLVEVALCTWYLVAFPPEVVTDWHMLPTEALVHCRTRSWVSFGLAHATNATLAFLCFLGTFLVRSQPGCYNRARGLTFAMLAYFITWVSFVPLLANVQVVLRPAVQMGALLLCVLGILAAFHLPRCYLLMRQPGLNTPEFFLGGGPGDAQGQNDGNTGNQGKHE
Assay: Calcium mobilisation assay, TAS1R2 variant A574T with TAS1R3-WT
Assay type: cell-based
Settings: maximal signal amplitude
Endpoint: Max ΔF/F0

[
  {
    "Compound": "C=C(C)[C@@H]1CC=C(/C=N/O)CC1",
    "Reported result": "1.39 ± 0.02"
  },
  {
    "Compound": "COc1ccc(CCC(=O)c2c(O)cc(O[C@@H]3O[C@H](CO)[C@@H](O)[C@H](O)[C@H]3O[C@@H]3O[C@@H](C)[C@H](O)[C@@H](O)[C@H]3O)cc2O)cc1O [NHDC, neohesperidin dihydrochalcone]",
    "Reported result": "0.81 ± 0.03"
  },
  {
    "Compound": "C=C1C[C@@]23CC[C@H]4[C@@](C)(CCC[C@@]4(C)C(=O)O[C@@H]4O[C@H](CO)[C@@H](O)[C@H](O[C@@H]5O[C@H](CO)[C@@H](O)[C@H](O)[C@H]5O)[C@H]4O[C@@H]4O[C@H](CO)[C@@H](O)[C@H](O)[C@H]4O)[C@@H]2CC[C@]1(O[C@@H]1O[C@H](CO)[C@@H](O)[C@H](O[C@@H]2O[C@H](CO)[C@@H](O)[C@H](O)[C@H]2O)[C@H]1O[C@@H]1O[C@H](CO)[C@@H](O)[C@H](O)[C@H]1O)C3 [Rebaudioside M, rebaudioside M]",
    "Reported result": "1.08 ± 0.01"
  },
  {
    "Compound": "C[C@H](CC[C@@H](O[C@@H]1O[C@H](CO[C@@H]2O[C@H](CO)[C@@H](O)[C@H](O)[C@H]2O)[C@@H](O)[C@H](O)[C@H]1O[C@@H]1O[C@H](CO)[C@@H](O)[C@H](O)[C@H]1O)C(C)(C)O)[C@H]1CC[C@@]2(C)[C@@H]3CC=C4[C@@H](CC[C@H](O[C@@H]5O[C@H](CO[C@@H]6O[C@H](CO)[C@@H](O)[C@H](O)[C@H]6O)[C@@H](O)[C@H](O)[C@H]5O)C4(C)C)[C@]3(C)[C@H](O)C[C@]12C [Mogroside V, mogroside V]",
    "Reported result": "1.25 ± 0.08"
  },
  {
    "Compound": "CC1=CC(=O)NS(=O)(=O)O1",
    "Reported result": "0.34 ± 0.02"
  },
  {
    "Compound": "COC(=O)[C@H](Cc1ccccc1)NC(=O)[C@H](CC(=O)O)NCCC(C)(C)C",
    "Reported result": "0.60 ± 0.01"
  },
  {
    "Compound": "OC[C@H]1O[C@H](O[C@]2(CCl)O[C@H](CCl)[C@@H](O)[C@@H]2O)[C@H](O)[C@@H](O)[C@H]1Cl",
    "Reported result": "0.63 ± 0.01"
  }
]

----------
Biological target: human TAS1R2-WT/TAS1R3-C757R (Homo sapiens, UniProt Q7RTX0+Q8TE23, C757R)
Construct: expressed in transfected cells; host or cells: HEK293T stably expressing Gα16gust44
Sequence (Q8TE23 20-839): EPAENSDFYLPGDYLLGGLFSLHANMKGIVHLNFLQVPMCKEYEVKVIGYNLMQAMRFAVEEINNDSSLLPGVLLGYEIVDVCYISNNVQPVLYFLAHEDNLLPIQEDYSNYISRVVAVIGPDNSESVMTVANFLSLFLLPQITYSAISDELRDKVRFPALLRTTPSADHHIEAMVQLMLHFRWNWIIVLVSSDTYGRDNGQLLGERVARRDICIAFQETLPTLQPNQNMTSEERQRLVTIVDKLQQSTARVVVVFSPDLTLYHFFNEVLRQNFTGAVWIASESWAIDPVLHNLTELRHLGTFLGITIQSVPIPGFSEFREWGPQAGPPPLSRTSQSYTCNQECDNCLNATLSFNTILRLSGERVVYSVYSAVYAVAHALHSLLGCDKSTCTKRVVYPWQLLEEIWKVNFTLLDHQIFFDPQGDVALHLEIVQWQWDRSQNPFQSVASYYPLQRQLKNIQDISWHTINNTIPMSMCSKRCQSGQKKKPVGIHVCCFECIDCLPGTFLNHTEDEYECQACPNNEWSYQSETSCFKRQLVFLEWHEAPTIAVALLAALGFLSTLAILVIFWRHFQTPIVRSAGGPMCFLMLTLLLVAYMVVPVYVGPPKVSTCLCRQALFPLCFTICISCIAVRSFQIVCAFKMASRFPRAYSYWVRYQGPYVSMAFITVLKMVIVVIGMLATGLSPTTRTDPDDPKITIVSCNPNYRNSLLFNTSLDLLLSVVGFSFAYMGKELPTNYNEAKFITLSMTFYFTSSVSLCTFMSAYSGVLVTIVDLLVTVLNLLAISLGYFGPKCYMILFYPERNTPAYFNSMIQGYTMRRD
Sequence (Q7RTX0 21-852 C757R): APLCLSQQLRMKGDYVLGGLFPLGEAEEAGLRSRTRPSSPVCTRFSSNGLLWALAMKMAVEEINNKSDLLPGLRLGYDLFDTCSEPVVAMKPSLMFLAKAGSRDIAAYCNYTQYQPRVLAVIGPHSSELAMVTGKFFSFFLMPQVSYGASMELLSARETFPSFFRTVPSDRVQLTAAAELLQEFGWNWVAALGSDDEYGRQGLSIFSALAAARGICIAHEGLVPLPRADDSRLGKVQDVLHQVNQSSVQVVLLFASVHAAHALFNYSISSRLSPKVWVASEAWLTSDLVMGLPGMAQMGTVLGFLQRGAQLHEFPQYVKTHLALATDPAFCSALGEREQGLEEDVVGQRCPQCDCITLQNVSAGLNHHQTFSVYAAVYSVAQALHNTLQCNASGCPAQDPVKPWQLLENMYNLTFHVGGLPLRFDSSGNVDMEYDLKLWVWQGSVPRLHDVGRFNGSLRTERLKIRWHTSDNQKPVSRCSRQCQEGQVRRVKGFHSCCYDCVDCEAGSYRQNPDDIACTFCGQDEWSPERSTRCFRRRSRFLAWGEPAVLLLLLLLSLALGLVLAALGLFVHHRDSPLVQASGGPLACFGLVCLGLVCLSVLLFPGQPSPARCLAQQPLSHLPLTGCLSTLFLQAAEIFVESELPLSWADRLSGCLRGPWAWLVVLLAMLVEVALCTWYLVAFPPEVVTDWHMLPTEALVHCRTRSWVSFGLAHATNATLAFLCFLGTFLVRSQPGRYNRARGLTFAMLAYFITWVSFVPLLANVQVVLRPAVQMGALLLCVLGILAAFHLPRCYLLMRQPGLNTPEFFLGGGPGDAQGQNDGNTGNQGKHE
Assay: Calcium mobilisation assay, TAS1R2-WT with TAS1R3 variant C757R
Assay type: cell-based
Conditions: maximal signal amplitude

[
  {
    "Compound": "OC[C@H]1O[C@H](O[C@]2(CCl)O[C@H](CCl)[C@@H](O)[C@@H]2O)[C@H](O)[C@@H](O)[C@H]1Cl",
    "Max ΔF/F0": "0.84 ± 0.03"
  },
  {
    "Compound": "COc1ccc(CCC(=O)c2c(O)cc(O[C@@H]3O[C@H](CO)[C@@H](O)[C@H](O)[C@H]3O[C@@H]3O[C@@H](C)[C@H](O)[C@@H](O)[C@H]3O)cc2O)cc1O [NHDC, neohesperidin dihydrochalcone]",
    "Max ΔF/F0": "0.98 ± 0.01"
  },
  {
    "Compound": "C=C1C[C@@]23CC[C@H]4[C@@](C)(CCC[C@@]4(C)C(=O)O[C@@H]4O[C@H](CO)[C@@H](O)[C@H](O[C@@H]5O[C@H](CO)[C@@H](O)[C@H](O)[C@H]5O)[C@H]4O[C@@H]4O[C@H](CO)[C@@H](O)[C@H](O)[C@H]4O)[C@@H]2CC[C@]1(O[C@@H]1O[C@H](CO)[C@@H](O)[C@H](O[C@@H]2O[C@H](CO)[C@@H](O)[C@H](O)[C@H]2O)[C@H]1O[C@@H]1O[C@H](CO)[C@@H](O)[C@H](O)[C@H]1O)C3 [Rebaudioside M, rebaudioside M]",
    "Max ΔF/F0": "1.13 ± 0.04"
  },
  {
    "Compound": "C=C(C)[C@@H]1CC=C(/C=N/O)CC1",
    "Max ΔF/F0": "1.23 ± 0.13"
  }
]

// data source = paper PMC11945486
